Target: rat iNOS (inducible NOS) (Rattus norvegicus)
Construct: purchased Cayman, Ann Arbor, Mich
Experiment: NOS activity, [3H]arginine to [3H]citrulline conversion, iNOS
Format: biochemical
Details: Conc = 1 mM
Counter-ions that a name gives are not always drawn.
test readout: remaining activity at 1000 µM (%)

[[record]]
molecule = "O=[N+]([O-])c1cccc2cn[nH]c12 [7-nitroindazole, reference compound]"
assay_value = 1

[[record]]
molecule = "C=C[C@](N)(CCCNC(=N)N)C(=O)O (racemic) [Alpha-Vinylarginine]"
assay_value = 7

[[record]]
molecule = "N=C(N)NCCCCN.O=S(=O)(O)O [Agmatine sulfate, reference compound]"
assay_value = 35.2

[[record]]
molecule = "N=C(N)NN [Amino guanidine, reference compound]"
assay_value = 1

[[record]]
molecule = "NC(N)=NCCCCN=C(N)N [Arcaine sulfate, reference compound]"
assay_value = 37.8


* * *

Molecular target: rat nNOS (neuronal NOS) (Rattus norvegicus, UniProt P29476)
Construct: purchased Cayman, Ann Arbor, Mich
Assay: NOS activity, [3H]arginine to [3H]citrulline conversion, nNOS
Type: biochemical
Details: Conc = 1 mM
Counter-ions that a name gives are not always drawn.
Strictly below 20% in remaining activity at 1000 µM: rule met. Otherwise: rule not met.

[[record]]
molecule = "C=C[C@](N)(CCCNC(=N)N)C(=O)O (racemic)"
discrete_label = "rule met"

[[record]]
molecule = "N=C(N)NCCCCN.O=S(=O)(O)O [Agmatine sulfate, reference compound]"
discrete_label = "rule not met"

[[record]]
molecule = "O=[N+]([O-])c1cccc2cn[nH]c12 [7-nitroindazole, reference compound]"
discrete_label = "rule met"

[[record]]
molecule = "NC(N)=NCCCCN=C(N)N [Arcaine sulfate, reference compound]"
discrete_label = "rule met"


* * *

Test system: rat agmatinase
Assay: Agmatinase activity assay ([14C]-agmatine hydrolysis)
Assay type: biochemical
Details: Conc = 0.5 mM
Counter-ions that a name gives are not always drawn.
test readout: Agmatinase activity remaining (%)

[[record]]
compound = "NC(N)=NCCCCN=C(N)N [Arcaine sulfate, reference compound]"
assay_value = "29.5%"

[[record]]
compound = "C=C[C@](N)(CCCNC(=N)N)C(=O)O (racemic) [Alpha-Vinylarginine]"
assay_value = "52.0%"

[[record]]
compound = "N=C(N)NCCCN [3-Aminopropylguanidine]"
assay_value = "3.1%"

[[record]]
compound = "N=C(N)NN [Amino guanidine, reference compound]"
assay_value = "53%"

[[record]]
compound = "N=CNCCCNCCCNC=N [Bis (3-(N-Iminomethyl)-aminopropyl)amine]"
assay_value = "38.0%"

[[record]]
compound = "N=C(N)NCCCCN.O=S(=O)(O)O [Agmatine sulfate, reference compound]"
assay_value = "37%"


* * *

Test system: rat brain NMDA receptor
Assay: [3H]-MK801 binding assay in rat brain membranes
Conditions: Conc = 0.1 mM
Structures can show the parent of a compound that is named as a salt.
Listed here: items and their measured 3H-MK801 Binding Remaining (%).
test readout: 3H-MK801 Binding Remaining (%)

[[record]]
compound = "N=C(N)NCCCCN.O=S(=O)(O)O [Agmatine sulfate, reference compound]"
assayed_target = "rat brain NMDA receptor"
assay_value = "93.8%"

[[record]]
compound = "NC(N)=NCCCCN=C(N)N [Arcaine sulfate, reference compound]"
assayed_target = "rat brain NMDA receptor"
assay_value = "45.1%"

[[record]]
compound = "C=C[C@](N)(CCCNC(=N)N)C(=O)O (racemic)"
assayed_target = "rat brain NMDA receptor"
assay_value = "99.7%"

[[record]]
compound = "N=CNCCCNCCCNC=N"
assayed_target = "rat brain NMDA receptor"
assay_value = "99.7%"

[[record]]
compound = "N=C(N)NN [Amino guanidine, reference compound]"
assayed_target = "rat brain NMDA receptor"
assay_value = "90.6%"

[[record]]
compound = "N=C(N)NCCCN"
assayed_target = "rat brain NMDA receptor"
assay_value = "93.9%"


* * *

Target: rat eNOS (epithelial NOS) (Rattus norvegicus, UniProt Q62600)
Construct: purchased Cayman, Ann Arbor, Mich
Experiment: NOS activity, [3H]arginine to [3H]citrulline conversion, eNOS
Assay type: biochemical
Settings: Conc = 1 mM
Where a name gives a salt, the structure may show the parent alone.
The reader will find reported remaining activity at 1000 µM values listed item by item below.
test readout: remaining activity at 1000 µM (%)

[[record]]
molecule = "NC(N)=NCCCCN=C(N)N [Arcaine sulfate, reference compound]"
assay_value = 83.4

[[record]]
molecule = "C=C[C@](N)(CCCNC(=N)N)C(=O)O (racemic)"
assay_value = 67.4

[[record]]
molecule = "N=C(N)NN [Amino guanidine, reference compound]"
assay_value = 30

[[record]]
molecule = "O=[N+]([O-])c1cccc2cn[nH]c12 [7-nitroindazole, reference compound]"
assay_value = 0

[[record]]
molecule = "N=C(N)NCCCCN.O=S(=O)(O)O [Agmatine sulfate, reference compound]"
assay_value = 97.4

